- assay-system: T1, recombinant rat MASP1 active protease (amino acids 302-704, C-terminal His Tag) (rat, UniProt Q8CHN8 302-704)
- T1 sequence: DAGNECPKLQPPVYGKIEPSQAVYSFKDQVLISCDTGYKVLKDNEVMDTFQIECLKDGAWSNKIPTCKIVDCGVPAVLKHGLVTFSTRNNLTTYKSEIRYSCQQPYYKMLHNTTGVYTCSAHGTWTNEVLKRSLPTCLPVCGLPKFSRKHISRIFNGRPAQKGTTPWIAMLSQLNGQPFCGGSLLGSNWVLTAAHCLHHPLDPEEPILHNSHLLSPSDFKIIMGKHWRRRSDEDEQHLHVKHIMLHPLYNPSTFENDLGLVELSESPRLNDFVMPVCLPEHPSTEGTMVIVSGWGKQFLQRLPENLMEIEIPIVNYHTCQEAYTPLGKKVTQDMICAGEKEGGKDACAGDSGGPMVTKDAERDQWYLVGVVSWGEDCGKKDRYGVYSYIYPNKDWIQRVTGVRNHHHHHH
- test-summary: cell-based or functional assay
Bridge positions count the residues as written; N and C are the ends. Square brackets hold non-standard residues; d marks the D form. Ends that are not written are not given here. PEG9(31 atoms) = 1-amino-3,6,9,12,15,18,21,24,27-nonaoxatriacontan-30-oic acid; His(τ-Bzl) = N[C@@H](Cc1cn(Cc2ccccc2)cn1)C(=O)O; Oic = O=C(O)[C@@H]1C[C@@H]2CCCC[C@@H]2N1; Hyp = O=C(O)[C@@H]1C[C@@H](O)CN1; tBuAla = CC(C)(C)C[C@H](N)C(=O)O; Pen = CC(C)(S)[C@H](N)C(=O)O; NMeC = CN[C@@H](CS)C(=O)O; Orn = NCCC[C@H](N)C(=O)O; Sar = CNCC(=O)O
Here, each record is paired with measured rat MASP1 IC50 data.
Give the number; nM is assumed, so skip it.

// worked examples, rat MASP1 IC50 included
binder="[Orn]ICSRS[tBuAla]PPI[Pen]IPD-OH (disulfide 3-11; N-terminus assumed; SMILES CC[C@H](C)[C@H](NC(=O)[C@@H](N)CCCN)C(=O)N[C@H]1CSSC(C)(C)[C@@H](C(=O)N[C@H](C(=O)N2CCC[C@H]2C(=O)N[C@@H](CC(=O)O)C(=O)O)[C@@H](C)CC)NC(=O)[C@H]([C@@H](C)CC)NC(=O)[C@@H]2CCCN2C(=O)[C@@H]2CCCN2C(=O)[C@H](CC(C)(C)C)NC(=O)[C@H](CO)NC(=O)[C@H](CCCNC(=N)N)NC(=O)[C@H](CO)NC1=O) [Example 18: (Orn)-IC+SRS-((tBu)A)-PPI-(Pen)+IPD-OH]" u=nM value_observed=26
binder="[Orn]ICSRS[tBuAla]PPI[Pen]IPD-NH2 (disulfide 3-11; N-terminus assumed; SMILES CC[C@H](C)[C@H](NC(=O)[C@@H](N)CCCN)C(=O)N[C@H]1CSSC(C)(C)[C@@H](C(=O)N[C@H](C(=O)N2CCC[C@H]2C(=O)N[C@@H](CC(=O)O)C(N)=O)[C@@H](C)CC)NC(=O)[C@H]([C@@H](C)CC)NC(=O)[C@@H]2CCCN2C(=O)[C@@H]2CCCN2C(=O)[C@H](CC(C)(C)C)NC(=O)[C@H](CO)NC(=O)[C@H](CCCNC(=N)N)NC(=O)[C@H](CO)NC1=O) [Example 49: (Orn)-IC+SRS-((tBu)A)-PPI-(Pen)+IPD-NH2]" u=nM value_observed=60
binder="[Sar]ICSRS[tBuAla]PPI[Pen]IP[PEG9(31 atoms)]-NH2 (disulfide 3-11) [Example 44: ((N-Me)G)-IC+SRS-((tBu)A)-PPI-(Pen)+IP-(PEG9(31 atoms))-NH2]" u=nM value_observed=87
binder="AICSRS[tBuAla]P[Oic]I[NMeC]IPD-OH (disulfide 3-11; N-terminus assumed; SMILES CC[C@H](C)[C@H](NC(=O)[C@H](C)N)C(=O)N[C@H]1CSSC[C@@H](C(=O)N[C@H](C(=O)N2CCC[C@H]2C(=O)N[C@@H](CC(=O)O)C(=O)O)[C@@H](C)CC)N(C)C(=O)[C@H]([C@@H](C)CC)NC(=O)[C@@H]2C[C@@H]3CCCC[C@@H]3N2C(=O)[C@@H]2CCCN2C(=O)[C@H](CC(C)(C)C)NC(=O)[C@H](CO)NC(=O)[C@H](CCCNC(=N)N)NC(=O)[C@H](CO)NC1=O) [Example 231: AIC+SRS-((tBu)A)-P-(Oic)-I-((N-Me)C)+IPD-OH]" u=nM value_observed=38
binder="GICSRSLPPICI[Hyp]D-OH (disulfide 3-11; N-terminus assumed; SMILES CC[C@H](C)[C@H](NC(=O)CN)C(=O)N[C@H]1CSSC[C@@H](C(=O)N[C@H](C(=O)N2C[C@H](O)C[C@H]2C(=O)N[C@@H](CC(=O)O)C(=O)O)[C@@H](C)CC)NC(=O)[C@H]([C@@H](C)CC)NC(=O)[C@@H]2CCCN2C(=O)[C@@H]2CCCN2C(=O)[C@H](CC(C)C)NC(=O)[C@H](CO)NC(=O)[C@H](CCCNC(=N)N)NC(=O)[C@H](CO)NC1=O) [Example 348: GIC+SRSLPPIC+I-(Hyp)-D-OH]" u=nM value_observed=350
binder="VICSRS[tBuAla]PPI[Pen]IPD-NH2 (disulfide 3-11; N-terminus assumed; SMILES CC[C@H](C)[C@H](NC(=O)[C@@H](N)C(C)C)C(=O)N[C@H]1CSSC(C)(C)[C@@H](C(=O)N[C@H](C(=O)N2CCC[C@H]2C(=O)N[C@@H](CC(=O)O)C(N)=O)[C@@H](C)CC)NC(=O)[C@H]([C@@H](C)CC)NC(=O)[C@@H]2CCCN2C(=O)[C@@H]2CCCN2C(=O)[C@H](CC(C)(C)C)NC(=O)[C@H](CO)NC(=O)[C@H](CCCNC(=N)N)NC(=O)[C@H](CO)NC1=O) [Example 54: VIC+SRS-((tBu)A)-PPI-(Pen)+IPD-NH2]" u=nM value_observed=160
binder="FICSRS[tBuAla]PPI[Pen]IPD-NH2 (disulfide 3-11; N-terminus assumed; SMILES CC[C@H](C)[C@H](NC(=O)[C@@H](N)Cc1ccccc1)C(=O)N[C@H]1CSSC(C)(C)[C@@H](C(=O)N[C@H](C(=O)N2CCC[C@H]2C(=O)N[C@@H](CC(=O)O)C(N)=O)[C@@H](C)CC)NC(=O)[C@H]([C@@H](C)CC)NC(=O)[C@@H]2CCCN2C(=O)[C@@H]2CCCN2C(=O)[C@H](CC(C)(C)C)NC(=O)[C@H](CO)NC(=O)[C@H](CCCNC(=N)N)NC(=O)[C@H](CO)NC1=O) [Example 211: FIC+SRS-((tBu)A)-PPI-(Pen)+IPD-NH2]" u=nM value_observed=75

Task item: I would be grateful if you could share the reported rat MASP1 IC50 for [Sar]ICSRS[tBuAla]PPI[Pen]IP[His(τ-Bzl)]-OH (disulfide 3-11; N-terminus assumed; SMILES CC[C@H](C)[C@H](NC(=O)CNC)C(=O)N[C@H]1CSSC(C)(C)[C@@H](C(=O)N[C@H](C(=O)N2CCC[C@H]2C(=O)N[C@@H](Cc2cn(Cc3ccccc3)cn2)C(=O)O)[C@@H](C)CC)NC(=O)[C@H]([C@@H](C)CC)NC(=O)[C@@H]2CCCN2C(=O)[C@@H]2CCCN2C(=O)[C@H](CC(C)(C)C)NC(=O)[C@H](CO)NC(=O)[C@H](CCCNC(=N)N)NC(=O)[C@H](CO)NC1=O) [Example 447: ((N-Me)G)-IC+SRS-((tBu)A)-PPI-(Pen)+IP-((1-Bn)H)-OH] .
Reply: 21
